# testMethodNotes: In vivo kinetics experiment (radioactivity distribution)
# Design: species or system Wistar male rat
# measurementParameters: rat, caudal vein, 30 min after administration
endpoint: Adrenal gland/liver ratio of radioactivity accumulation
Answer with a bare number; do not write a unit.

Record excerpt, results attached:
**Q:** Form field: reported Adrenal gland/liver ratio of radioactivity accumulation of [123I]c1ccc2nc(-c3cncc(Cn4ccnn4)c3)n(C3CC3)c2c1 [[^123I] 603]
**A:** 17.77

**Q:** Form field: reported Adrenal gland/liver ratio of radioactivity accumulation of [123I]c1ccc2nc(-c3cncc(Cn4ccnc4)c3)n(C3CC3)c2c1 [[^123I] 602]
**A:** 13.82

**Q:** Form field: reported Adrenal gland/liver ratio of radioactivity accumulation of FCCn1c(-c2cncc(Cn3ccnc3)c2)nc2cc(F)c([123I])cc21 [[^123I] 400]
**A:** 13.82

Next:
**Q:** Form field: reported Adrenal gland/liver ratio of radioactivity accumulation of Fc1cc2nc(-c3cncc(Cn4ccnc4)c3)n(CC[18F])c2cc1Cl [[^18F] 100]
**A:** 3.58

**Q:** Form field: reported Adrenal gland/liver ratio of radioactivity accumulation of Fc1cc2nc(-c3cncc(Cn4ccnc4)c3)n(CCC[18F])c2cc1Cl [[^18F] 500]
**A:** 4.39

**Q:** Form field: reported Adrenal gland/liver ratio of radioactivity accumulation of Fc1cc2nc(-c3cncc(Cn4ccnc4)c3)n(CC[18F])c2cc1Br [[^18F] 200]
**A:** 5.06
